Tested on: MDA-MB-468 spheroids with HUVEC/MSC, viability
Experiment: Anticancer human tumor MDA-MB-468 cell line growth inhibition [PI3K];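 further: spheroids exposed to agents for seven days before readout; 100% = DMSO vehicle control viability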
Conditions: second compound 1 µM; first compound 10 µM; hits give low values
measured_property: viability, T/C (%)
Answer with a number only, understood to be in %.

INSERT INTO assay_data (molecule, measured_property, recorded_number) VALUES
  ('C=CC(=O)N1CCN(c2nc(=O)n(-c3c(C)ccnc3C(C)C)c3nc(-c4c(O)cccc4F)c(F)cc23)C(C)C1 (stereo not drawn) + Cc1nc(NC(=O)N2CCCC2C(N)=O)sc1-c1ccnc(C(C)(C)C(F)(F)F)c1', 'viability, T/C', 44.9),
  ('C#Cc1c(F)ccc2cc(O)cc(-c3ncc4c(N5CC6CCC(C5)N6)nc(OCC56CCCN5CC(F)C6)nc4c3F)c12 (stereo not drawn) + CC(Nc1ncnc2nc[nH]c12)c1cc2cccc(Cl)c2c(=O)n1-c1ccccc1', 'viability, T/C', 52.1);

Turning now to a further molecule:
So, Cn1ncc(Cl)c1-c1cc(C(=O)NC(CN)Cc2cccc(F)c2)sc1Cl (stereo not drawn) + COc1c(OCCCN2CCOCC2)ccc2c3n(c(=NC(=O)c4cnc(N)nc4)nc12)CCN3 ? Its viability, T/C was 1.32

Reference source for all entries: PubChem BioAssay AID1963960
